B1: FBXO3 (parent)
chain: GGFPIIRDQIFRYVHDPECVATTG

# Variants of: B1
# assay.procedure: protein stability index of a GFP-peptide fusion (GPS, HEK-293T) (PSI 1-6); higher = more stable;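 further: lentivirally expressed fusions sorted by FACS into six bins by GFP to DsRed ratio, PSI derived from sequencing read proportions per bin multiplied by bin number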
# test.parameters: c terminus: a fixed tail appended
We use 2 as the dividing line for protein stability index: on or above the line is 1.0, below is 0.0.

>>> print(df.to_string())
   variant_designation  assigned_category
0                 D16H                0.0
1                 C19L                0.0
2                  G2W                1.0
3                 I10P                1.0
4                 G24F                0.0
5                 F11T                1.0
6                 T22A                0.0
7                 T22P                1.0

Please check the record A21C and state if its protein stability index is at or above 2.
0.0

Please check the record R12W and state if its protein stability index is at or above 2.
0.0

Please check the record C19Q and state if its protein stability index is at or above 2.
0.0

Please check the record P4R and state if its protein stability index is at or above 2.
1.0

Please check the record D8S and state if its protein stability index is at or above 2.
0.0

Please check the record F3W and state if its protein stability index is at or above 2.
1.0

Please check the record D16M and state if its protein stability index is at or above 2.
0.0
